Test system: A. baumannii ATCC BAA-1605
Type: cell-based, Acinetobacter baumannii
Settings: ATCC BAA-1605, 18 h
Residues, ends and D or L forms follow the SMILES beside them.
observed_property: MIC A (µg/mL)

[a] CCCCCCCCCCCCCCCC(=O)N[C@@H](CCCNC(=N)N)C(=O)N[C@@H](CCCNC(=N)N)C(N)=O [compound 5, C16-RR-NH2, reference compound] (HELM PEPTIDE1{[CCCCCCCCCCCCCCCC(=O)[*:2]].R.R.[am]}$$$$V2.0)
[b] CCCCCCCCCCCC(=O)N[C@H](C(=O)N[C@@H](CCCNC(=N)N)C(=O)N[C@@H](CCCNC(=N)N)C(N)=O)[C@@H](C)CC [compound 37, C12-IRR-NH2] (HELM PEPTIDE1{[CCCCCCCCCCCC(=O)[*:2]].I.R.R.[am]}$$$$V2.0)
[c] CCCCCCCCC(CCCCCC)C(=O)N[C@@H](CCCNC(=N)N)C(=O)N[C@@H](CCCNC(=N)N)C(N)=O (stereo partly shown) [compound 105, C10(6)-RR-NH2]
Req: Order the records by MIC A, with each subsequent value no larger than the one before. State the ranking by listing the labels in the requested order.
Resp: c, b, a

====

Test system: human red blood cells (hRBCs)
Type: cell-based
Details: red cells of human, 1 h
Residues, ends and D or L forms follow the SMILES beside them.
observed_property: HC50

Would you please look over these solved cases?
- compound: "CCCCCCCCCCCCCC(=O)N[C@@H](Cc1c[nH]c2ccccc12)C(=O)N[C@@H](CCCNC(=N)N)C(=O)N[C@@H](CCCNC(=N)N)C(N)=O [compound 98, C14-WRR-NH2] (HELM PEPTIDE1{[CCCCCCCCCCCCCC(=O)[*:2]].W.R.R.[am]}$$$$V2.0)"
  value_measured: "36.91 (±0.89) µg/mL"
- compound: "CCCCCCCCCCCCCC(=O)N[C@@H](CC(N)=O)C(=O)N[C@@H](CCCNC(=N)N)C(=O)N[C@@H](CCCNC(=N)N)C(N)=O [compound 62, C14-NRR-NH2] (HELM PEPTIDE1{[CCCCCCCCCCCCCC(=O)[*:2]].N.R.R.[am]}$$$$V2.0)"
  value_measured: "64.37 (±2.23) µg/mL"
- compound: "CCCCCCCCCCCC(=O)N[C@@H](Cc1ccccc1)C(=O)N[C@@H](CCCNC(=N)N)C(=O)N[C@@H](CCCNC(=N)N)C(N)=O [compound 25, C12-FRR-NH2] (HELM PEPTIDE1{[CCCCCCCCCCCC(=O)[*:2]].F.R.R.[am]}$$$$V2.0)"
  value_measured: "91.21 (±16.38) µg/mL"

Now look at this entry.
Req: So what does the record say about HC50 for CCCCCCCCCCCCCC(=O)N[C@@H](CCC(=O)O)C(=O)N[C@@H](CCCNC(=N)N)C(=O)N[C@@H](CCCNC(=N)N)C(N)=O [compound 22, C14-ERR-NH2] (HELM PEPTIDE1{[CCCCCCCCCCCCCC(=O)[*:2]].E.R.R.[am]}$$$$V2.0) ?
Resp: 59.51 (±4.00) µg/mL

====

Assay: Determination of peptide hydrophobicity with RP-HPLC (adjusted retention time)
Type: physicochemical
Conditions: Table 3; adjusted retention time as hydrophobicity; RP-HPLC C18, linear 10–55% acetonitrile over 60 min, 0.1% TFA, 25.0 °C, UV 214 nm, triplicate
Residues, ends and D or L forms follow the SMILES beside them.
observed_property: tR’ (min)

- molecule: "CCCCCCCCCCCCCC(=O)N[C@@H](CC(N)=O)C(=O)N[C@@H](CCCNC(=N)N)C(=O)N[C@@H](CCCNC(=N)N)C(N)=O [compound 62, C14-NRR-NH2] (HELM PEPTIDE1{[CCCCCCCCCCCCCC(=O)[*:2]].N.R.R.[am]}$$$$V2.0)"
  unit_info: "min"
  value_measured: 38.71
- molecule: "CCCCCCCCCCCCCC(=O)N[C@@H](Cc1ccc(O)cc1)C(=O)N[C@@H](CCCNC(=N)N)C(=O)N[C@@H](CCCNC(=N)N)C(N)=O [compound 102, C14-YRR-NH2] (HELM PEPTIDE1{[CCCCCCCCCCCCCC(=O)[*:2]].Y.R.R.[am]}$$$$V2.0)"
  unit_info: "min"
  value_measured: 42.73
- molecule: "CCCCCCCCCCCCCC(=O)N[C@@H](CCC(N)=O)C(=O)N[C@@H](CCCNC(=N)N)C(=O)N[C@@H](CCCNC(=N)N)C(N)=O [compound 78, C14-QRR-NH2] (HELM PEPTIDE1{[CCCCCCCCCCCCCC(=O)[*:2]].Q.R.R.[am]}$$$$V2.0)"
  unit_info: "min"
  value_measured: 38.52
- molecule: "CCCCCCCCCCCCCC(=O)N[C@@H](C)C(=O)N[C@@H](CCCNC(=N)N)C(=O)N[C@@H](CCCNC(=N)N)C(N)=O [compound 10, C14-ARR-NH2] (HELM PEPTIDE1{[CCCCCCCCCCCCCC(=O)[*:2]].A.R.R.[am]}$$$$V2.0)"
  unit_info: "min"
  value_measured: 40.92
- molecule: "CCCCCCCCCCCC(=O)N[C@@H](CCC)C(=O)N[C@@H](CCCNC(=N)N)C(=O)N[C@@H](CCCNC(=N)N)C(N)=O [compound 69, C12-NvaRR-NH2] (HELM PEPTIDE1{[CCCCCCCCCCCC(=O)[*:2]].[Nva].R.R.[am]}$$$$V2.0)"
  unit_info: "min"
  value_measured: 37.67
- molecule: "CCCCCCCCCCCC(=O)N[C@@H](CC(C)C)C(=O)N[C@@H](CCCNC(=N)N)C(=O)N[C@@H](CCCNC(=N)N)C(N)=O [compound 45, C12-LRR-NH2] (HELM PEPTIDE1{[CCCCCCCCCCCC(=O)[*:2]].L.R.R.[am]}$$$$V2.0)"
  unit_info: "min"
  value_measured: 39.82
- molecule: "CCCCCCCCCCCCCC(=O)N[C@@H](CC[S+](C)[O-])C(=O)N[C@@H](CCCNC(=N)N)C(=O)N[C@@H](CCCNC(=N)N)C(N)=O (some centres unmarked) [compound 54, C14-M(O)RR-NH2] (HELM PEPTIDE1{[CCCCCCCCCCCCCC(=O)[*:2]].[CS(=O)CC[C@H](N[*:1])C(=O)[*:2]].R.R.[am]}$$$$V2.0)"
  unit_info: "min"
  value_measured: 39.18
- molecule: "CCCCCCCCCCCC(=O)N[C@H](C(=O)N[C@@H](CCCNC(=N)N)C(=O)N[C@@H](CCCNC(=N)N)C(N)=O)[C@@H](C)CC [compound 37, C12-IRR-NH2] (HELM PEPTIDE1{[CCCCCCCCCCCC(=O)[*:2]].I.R.R.[am]}$$$$V2.0)"
  unit_info: "min"
  value_measured: 39.05
